So I've got IC50 readings for UniProt:Q99640, take a look.
Sequence (Q99640 whole entry): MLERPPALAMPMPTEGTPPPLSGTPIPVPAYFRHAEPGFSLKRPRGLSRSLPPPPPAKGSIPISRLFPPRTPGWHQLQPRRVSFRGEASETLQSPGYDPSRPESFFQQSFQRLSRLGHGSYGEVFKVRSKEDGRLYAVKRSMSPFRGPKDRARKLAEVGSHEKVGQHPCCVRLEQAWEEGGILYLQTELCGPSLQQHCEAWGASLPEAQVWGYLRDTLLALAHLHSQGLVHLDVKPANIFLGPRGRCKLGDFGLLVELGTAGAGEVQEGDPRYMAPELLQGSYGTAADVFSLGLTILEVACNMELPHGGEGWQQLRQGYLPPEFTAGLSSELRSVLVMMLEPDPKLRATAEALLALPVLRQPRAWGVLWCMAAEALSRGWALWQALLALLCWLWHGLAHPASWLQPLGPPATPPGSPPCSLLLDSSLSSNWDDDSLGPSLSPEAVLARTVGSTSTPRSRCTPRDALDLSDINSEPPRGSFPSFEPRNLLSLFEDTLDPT

## Input State the measured IC50 (UniProt:Q99640) of `Cc1cc(F)c(O)c(C)c1-n1c(N)c(C(=O)N2CCn3nccc3C2)c2nc(C)c(C)nc21`
## Output 10 to 50 nM

## Input State the measured IC50 (UniProt:Q99640) of `Cc1ccc(O)c(C)c1-n1c(N)c(C(=O)N2CCn3nccc3C2)c2nc(C(F)(F)F)ncc21`
## Output 50 to 500 nM

## Input State the measured IC50 (UniProt:Q99640) of `Cc1cc2n(n1)CCN(C(=O)c1c(N)n(-c3c(C)ccc(O)c3C)c3ncc(Cl)cc13)C2`
## Output 10 to 50 nM

## Input State the measured IC50 (UniProt:Q99640) of `C=Cc1cnc2c(n1)c(C(=O)N1CCn3nccc3C1)c(N)n2-c1c(C)ccc(O)c1C`
## Output 10 to 50 nM

***
## Input State the measured IC50 (UniProt:Q99640) of `Cc1ccc(O)c(C)c1-n1c(N)c(C(=O)N2CCn3nc(C(C)(C)O)cc3C2)c2nc(C)c(C)nc21`
## Output 500 to 5000 nM

## Input State the measured IC50 (UniProt:Q99640) of `Cc1ccc(O)c(Cl)c1-n1c(N)c(C(=O)N2CCn3nccc3C2)c2nc(C)c(C)nc21`
## Output < 10 nM

## Input State the measured IC50 (UniProt:Q99640) of Cc1ccc(O)c(C)c1-n1c(N)c(C(=O)N2CCn3nccc3C2C)c2nc(C)c(C)nc21 (centres unmarked)
## Output 500 to 5000 nM

## Input State the measured IC50 (UniProt:Q99640) of `Cc1ccc(O)c(C)c1-n1c(N)c(C(=O)N2CCc3ncccc3C2)c2nc(C)c(C)nc21`
## Output < 10 nM
